# Subject of test: Muscarinic acetylcholine receptor M1 (Homo sapiens) (UniProt P11229)
# Sequence (P11229 whole entry, looked up): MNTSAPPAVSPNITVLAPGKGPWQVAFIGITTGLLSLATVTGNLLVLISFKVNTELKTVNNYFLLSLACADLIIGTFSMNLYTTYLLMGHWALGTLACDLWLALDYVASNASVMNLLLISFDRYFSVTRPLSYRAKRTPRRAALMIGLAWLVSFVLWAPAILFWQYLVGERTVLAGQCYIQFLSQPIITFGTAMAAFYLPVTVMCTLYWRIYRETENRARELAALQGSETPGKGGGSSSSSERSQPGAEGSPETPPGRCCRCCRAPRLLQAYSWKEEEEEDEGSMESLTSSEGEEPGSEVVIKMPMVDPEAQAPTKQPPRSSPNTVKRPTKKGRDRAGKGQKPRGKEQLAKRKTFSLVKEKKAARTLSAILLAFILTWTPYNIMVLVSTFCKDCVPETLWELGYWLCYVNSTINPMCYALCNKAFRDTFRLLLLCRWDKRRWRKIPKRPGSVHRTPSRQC
# Test method notes: Cholinergic receptor muscarinic 1 (CHRM1) small molecule antagonists, cell-based qHTS assay (AID 1963588); also: nearly all actives have a fitted effect of over 40% in size
# Setup conditions: CHRM1-CHO antagonist mode, calcium flux fluorescence; series mostly up to 61.5 µM
Records with an inconclusive call do not appear. Activity calls are given as the source filed them. Calls follow the shape of the full dose curve.
Labels: y (active), n (inactive)

{"columns": ["Molecule", "Category label"],
 "data": [
  ["NC(CCC(=O)O)C(=O)O (stereo not drawn)", "n"],
  ["CCCCOc1ccc(N)cc1", "n"],
  ["O=c1[nH]sc2ccccc12", "n"],
  ["O=C(CC(=O)c1ccccc1)c1ccccc1", "n"],
  ["CCCNC(C)(C)COC(=O)c1ccccc1", "n"],
  ["CN1CCN(CCC(=O)N2c3ccccc3Sc3ccc(C(F)(F)F)cc32)CC1", "y"],
  ["Cc1c(C(=O)O)c(O)cc2c1C(=O)c1c(O)c([C@@H]3O[C@H](CO)[C@@H](O)[C@H](O)[C@H]3O)c(O)c(O)c1C2=O", "n"],
  ["Nc1cc(Cl)c([N+](=O)[O-])cc1O", "n"],
  ["O=C(O)CNC(=O)CNC(=O)CNC(=O)CSC(=O)c1ccccc1", "n"],
  ["Cc1c(O)cccc1O", "n"],
  ["CC(C)CCOC(=O)c1ccc(N(C)C)cc1", "n"],
  ["CC(C)NC(=O)NC(C)C", "n"],
  ["C=C(C)[C@@H]1CC=C(C)CC1", "n"],
  ["CC(C)OC(=O)c1cc(C(=O)OC(C)C)cc([N+](=O)[O-])c1", "n"],
  ["O=C(O)CCn1c2c(c3ccccc31)C[C@H](NS(=O)(=O)c1ccc(F)cc1)CC2", "n"],
  ["COc1cccc(CCc2ccccc2OCC(CN(C)C)OC(=O)CCC(=O)O)c1 (stereo not drawn)", "n"],
  ["COc1ccc(S(=O)(=O)N2C(=O)[C@@](c3ccccc3OC)(N3C[C@H](O)C[C@H]3C(=O)N(C)C)c3cc(Cl)ccc32)c(OC)c1", "n"],
  ["CC/C=C\\CCCCCCCCCCOC(C)=O", "n"],
  ["O=C1CCCc2c1cc1ccc3cccc4ccc2c1c34", "n"],
  ["COc1nccnc1CC(C)C", "n"],
  ["Nc1ccc2cc3ccc(N)cc3nc2c1", "n"],
  ["CC1=NN(c2cc(Cl)c(S(=O)(=O)O)cc2Cl)C(=O)C1N=Nc1ccc(S(=O)(=O)O)cc1 (stereo not drawn)", "n"],
  ["NC(=O)CCCCC1CCSS1 (stereo not drawn)", "n"],
  ["CCN1CCC[C@H]1CNC(=O)c1c(OC)ccc(Br)c1OC", "n"],
  ["c1ccc2c(c1)ccc1c3ccccc3ccc21", "n"],
  ["COC(=O)C1=C(C)NC(C)=C(C(=O)OCC(C)=O)C1c1ccccc1[N+](=O)[O-] (stereo not drawn)", "n"],
  ["Clc1cccc(-c2cc(Cl)cc(Cl)c2)c1", "n"],
  ["Oc1c(I)cc(Cl)c2cccnc12", "n"],
  ["CC1=C(Br)C(=O)C(Br)=C/C1=C(/c1ccccc1S(=O)(=O)O)c1cc(Br)c(O)c(Br)c1C", "n"],
  ["CCC1(c2cnc[nH]2)Cc2ccccc2C1", "n"],
  ["CCc1c(C)cc(N)c(CC)c1N", "n"],
  ["O=C(Cl)c1ccc([N+](=O)[O-])cc1", "n"],
  ["Nc1nc(-c2ccccc2)cs1", "n"]
]}

Values from PubChem BioAssay (Tox21)
